Tested on: H1N1 California/07/2009
test.description: microbe, parasite or virus in culture
Assay type: cell-based, influenza A virus
condition.summary: Influenza A H1N1 California/07/20/09 (so in the source); Drug Assay Visual/Neutral Red
Bridge positions count the residues as written; N and C are the ends. Square brackets hold non-standard residues; d marks the D form. Peptide text beside a SMILES is read from it. R8 = C=CCCCCCC[C@@](C)(N)C(=O)O; S5 = C=CCCC[C@](C)(N)C(=O)O; Nle = CCCC[C@H](N)C(=O)O; Aib = CC(C)(N)C(=O)O
Listed next: entries and their corresponding EC90.
Write the answer as a number in µM, unit excluded.

INSERT INTO measurements (compound, quantity_unit, assay_value) VALUES
  ('CCCC[C@H](NC(C)=O)C(=O)N[C@@H](CC(=O)O)C(=O)N[C@H](C(=O)N[C@@H](CC(N)=O)C(=O)N[C@]1(C)CCCCCCC=CCCC[C@@](C)(C(=O)N[C@@H](C)C(=O)N[C@@H](C)C(=O)N[C@@H](CCC(N)=O)C(N)=O)NC(=O)[C@H](C)NC(=O)[C@H](CC(C)C)NC(=O)[C@H](Cc2ccccc2)NC(=O)[C@H](CC(C)C)NC(=O)[C@H](CC(C)C)NC(=O)[C@H]([C@@H](C)O)NC1=O)C(C)C [SP-18] (Ac-[Nle]DVN[R8]TLLFLA[S5]AAQ-NH2; staple 5-12)', 'µM', 4);

Find the measured EC90 of CCCC[C@H](NC(C)=O)C(=O)N[C@@H](CC(=O)O)C(=O)N[C@H](C(=O)N[C@@H](CC(N)=O)C(=O)N[C@@]1(C)CCCC=CCCC[C@@](C)(C(=O)N[C@@H](CC(C)C)C(=O)N[C@@H](C)C(=O)N[C@H](C(=O)N[C@@H](CCC(N)=O)C(=O)NC(C)(C)C(=O)N[C@@H](C)C(=O)N[C@@H](C)C(=O)N[C@@H](C)C(N)=O)C(C)C)NC(=O)[C@H](CC(C)C)NC(=O)[C@H](CC(C)C)NC(=O)[C@H]([C@@H](C)O)NC1=O)C(C)C [SP-21] (Ac-[Nle]DVN[S5]TLL[S5]LAVQ[Aib]AAA-NH2; staple 5-9) and report it. 9.6

Find the measured EC90 of CCCC[C@H](NC(C)=O)C(=O)N[C@@H](CC(=O)O)C(=O)N[C@H](C(=O)N[C@@H](CC(N)=O)C(=O)N[C@]1(C)CCCCCCC=CCCC[C@@](C)(C(=O)N[C@@H](CCC(N)=O)C(=O)N[C@@H](C)C(=O)N[C@@H](C)C(=O)N[C@@H](C)C(=O)N[C@@H](C)C(N)=O)NC(=O)[C@H](C)NC(=O)[C@H](CC(C)C)NC(=O)[C@H](Cc2ccccc2)NC(=O)[C@H](CC(C)C)NC(=O)[C@H](CC(C)C)NC(=O)[C@H]([C@@H](C)O)NC1=O)C(C)C [SP-27] (Ac-[Nle]DVN[R8]TLLFLA[S5]QAAAA-NH2; staple 5-12) and report it. 8

Find the measured EC90 of CCCC[C@H](NC(C)=O)C(=O)N[C@@H](CC(=O)O)C(=O)N[C@H](C(=O)N[C@@H](CC(N)=O)C(=O)N[C@]1(C)CCCCCCC=CCCC[C@@](C)(C(=O)N[C@@H](C)C(=O)N[C@@H](C)C(=O)N[C@@H](C)C(=O)N[C@@H](C)C(=O)N[C@@H](C)C(N)=O)NC(=O)[C@H](C)NC(=O)[C@H](CC(C)C)NC(=O)[C@H](Cc2ccccc2)NC(=O)[C@H](CC(C)C)NC(=O)[C@H](CC(C)C)NC(=O)[C@H]([C@@H](C)O)NC1=O)C(C)C [SP-25] (Ac-[Nle]DVN[R8]TLLFLA[S5]AAAAA-NH2; staple 5-12) and report it. 8.2

Reference source: patent US10059741B2
